# TGT: CDK1/cyclin B
# ASSAY_PROCEDURE: CDK1/cyclin B kinase assay
# CONDITION: 15 μM ATP, 30° C., histone H1 substrate
MEASURED_QUANTITY: IC50 (nM)

Example cases with answers are listed next.
CC[C@H](CO)Nc1nc(NCc2ccc(-c3ccccc3)cc2)n2ncc(C(C)C)c2n1 [Compound 1]	180
CC(C)c1cnn2c(NCc3ccc(-c4ccccn4)cc3)nc(N[C@@H](CO)[C@H](C)O)nc12 [Compound 15]	42

a = CC(C)c1cnn2c(NCc3ccc(-c4ccccn4)cc3)nc(N[C@H](CO)[C@@H](C)O)nc12 (stereo in doubt) [Compound 12]
b = CC(C)c1cnn2c(NCc3ccc(-c4ccccn4)cc3)nc(NC(CO)CO)nc12 [Compound 18]
Of a versus b , which is the one with smaller reported IC50? To answer, give the label that identifies your chosen option.
a

* * *

# TGT: CDK2/cyclin A (Homo sapiens)
# ASSAY_PROCEDURE: CDK2/cyclin A kinase assay
# CONDITION: 15 μM ATP, 30° C., histone H1 substrate
MEASURED_QUANTITY: IC50 (nM)

CC(C)c1cnn2c(NCc3ccc(-c4ccccn4)cc3)nc(N[C@H](CO)[C@@H](C)O)nc12 (stereo in doubt) [Compound 12]	22

A = CC(C)c1cnn2c(NCc3ccc(-c4ccsc4)cc3)nc(N[C@H](CO)[C@@H](C)O)nc12 (stereo in doubt)
B = CC[C@@H](CO)Nc1nc(NCc2ccc(-c3ccccn3)cc2)n2ncc(C(C)C)c2n1
C = CC(C)c1cnn2c(NCc3ccc(-c4ccccn4)cc3)nc(NC(CO)CO)nc12 [Compound 17]
D = CC[C@H](CO)Nc1nc(NCc2ccc(-c3ccccc3)cc2)n2ncc(C(C)C)c2n1
Order each entry by recorded IC50, climbing from the minimum. # answer = labels listed in requested order
B, A, C, D

P = CC(C)c1cnn2c(NCc3ccc(-c4ccccn4)cc3)nc(N[C@@H](CO)[C@H](C)O)nc12 (stereo in doubt) [Compound 14]
Q = CC(C)c1cnn2c(NCc3ccc(-c4ccccn4)cc3)nc(NC[C@H](O)CO)nc12
Of P versus Q , which is the one with smaller reported IC50? To answer, give the label that identifies your chosen option.
Q

a = CC(C)c1cnn2c(NCc3ccc(-c4ccccn4)cc3)nc(N[C@H](CO)[C@@H](C)O)nc12 [Compound 13]
b = CC(C)c1cnn2c(NCc3ccc(-c4ccccn4)cc3)nc(N[C@@H](CO)[C@H](C)O)nc12 [Compound 15]
c = CC(C)c1cnn2c(NCc3ccc(-c4ccccn4)cc3)nc(NC(CO)CO)nc12 [Compound 18]
Rank descending by IC50. # answer = labels listed in requested order
c, b, a

* * *

# TGT: CK1δ/ε
# ASSAY_PROCEDURE: CK1δ/ε kinase assay
# CONDITION: 15 μM ATP, 30° C., CK1-specific peptide substrate
# Procedure: The blank values were subtracted and the activities calculated as μmoles of phosphate incorporated per 10 minutes of incubation. […] Controls were performed with appropriate dilutions of dimethyl sulfoxide. ATP (3000 Ci/mmol; 10 mCi/ml) in a final volume of 30 μl. […]
MEASURED_QUANTITY: IC50 (nM)

Example cases with answers are listed next.
CC(C)c1cnn2c(NCc3ccc(-c4ccccc4)nc3)nc(N[C@H](CO)[C@@H](C)O)nc12 [Compound 23]	130
CC(C)c1cnn2c(NCc3ccc(-c4ccccn4)cc3)nc(N[C@H](CO)[C@@H](C)O)nc12 (stereo in doubt) [Compound 12]	200
CC(C)c1cnn2c(NCc3ccc(-c4ccccn4)cc3)nc(N[C@H](CO)[C@@H](C)O)nc12 [Compound 13]	180
CCc1cnn2c(NCc3ccc(-c4ccccn4)cc3)nc(N[C@H](CC)CO)nc12 [Compound 36]	580

A = CCc1cnn2c(NCc3ccc(-c4ccccn4)cc3)nc(NC[C@H](O)CO)nc12 [Compound 34]
B = CC[C@@H](CO)Nc1nc(NCc2ccc(-c3ccccn3)cc2)n2ncc(C(C)C)c2n1 [Compound 5]
Of A versus B , which is the one with smaller reported IC50? To answer, give the label that identifies your chosen option.
A
(A: 100 nM, B: 210 nM)
